- Experimental system: T1, human p300BRP (residues 1048–1282), wild type (human, UniProt Q09472 1048-1282, fluorescently labeled with a His tag Labeling Kit (microscale thermophoresis only))
- T1 sequence (looked up): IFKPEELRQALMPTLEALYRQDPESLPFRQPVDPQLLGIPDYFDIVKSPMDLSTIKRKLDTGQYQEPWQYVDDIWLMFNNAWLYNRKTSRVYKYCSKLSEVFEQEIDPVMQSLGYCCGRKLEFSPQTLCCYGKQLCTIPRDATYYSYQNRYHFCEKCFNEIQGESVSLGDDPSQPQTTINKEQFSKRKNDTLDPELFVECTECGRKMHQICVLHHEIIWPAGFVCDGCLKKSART
- Assay name: ITC; 100 µM protein in the cell, 1 mM acetylated histone NT peptide in the syringe; 25 °C; 10 mM HEPES-NaOH pH 7.4, 150 mM NaCl; single binding site model
- Condition description: both partners purified
Where no end group is shown, it is not given here.
Parameter: Kd (µM)
Answer format: numeric, µM implied, no suffix.

GET /value?item= KAVTK(Ac)AQK(Ac)KDGK [di-acetylated H2B peptide K20ac/K23ac] &field=Kd returns 200
